assay-comment: Phase I calcium acetate interaction study
Format: in vivo, human
measurement-setup: human, plasma, oral, 300 mg, Vadadustat 300 mg alone, immediately after breakfast; read-out: Elimination half-life (t1/2) (converted)
endpoint-label: half-life (h)
Provide the reading as a plain figure in h.

The molecule listed as O=C(O)CNC(=O)c1ncc(-c2cccc(Cl)c2)cc1O [Compound 1] has a reported half-life of 4.75

----------
assay-comment: Phase I calcium acetate interaction study
Type: in vivo, human
measurement-setup: human, plasma, oral, 300 mg, Vadadustat administered 2 hours after calcium acetate
endpoint-label: Cmax (ng/mL)
Give just the number in ng/mL; leave the unit off.

molecule O=C(O)CNC(=O)c1ncc(-c2cccc(Cl)c2)cc1O [Compound 1] , Cmax observed: 24600

----------
assay-comment: Influence of meal on pharmacokinetics, single 450 mg dose
measurement-setup: male, human, in vivo, oral, compared with fasting, read-out: prolongation of median tmax by postprandial administration
endpoint-label: Tmax

Tmax reported for this compound O=C(O)CNC(=O)c1ncc(-c2cccc(Cl)c2)cc1O : ~1.5 h

----------
assay-comment: Phase I single-dose study, moderate hepatic impairment versus normal hepatic function
Format: in vivo, human
measurement-setup: both sexes, human, urine, oral, 450 mg, single 450 mg, Normal Liver Function; read-out: CLr, renal clearance (converted)
endpoint-label: CL renal (mL/min)
Record the value in mL/min, omitting the unit from your answer.

For O=C(O)CNC(=O)c1ncc(-c2cccc(Cl)c2)cc1O [Compound 1] the molecule record lists CL renal as 0.122

----------
Cmax values, listed per item
assay-comment: Phase I interaction study Part 3 Arm 1: atorvastatin
Type: in vivo, human
measurement-setup: both sexes, human, plasma, oral, 40 mg; read-out: Cmax, Geometric LSM
The reply should contain only the number, in ng/mL.

// CC(C)c1c(C(=O)Nc2ccccc2O)c(-c2ccccc2)c(-c2ccc(F)cc2)n1CC[C@@H](O)C[C@@H](O)CC(=O)O [o-hydroxy atorvastatin] : Cmax value = 15

Field Cmax (entry CC(C)c1c(C(=O)Nc2ccc(O)cc2)c(-c2ccccc2)c(-c2ccc(F)cc2)n1CC[C@@H](O)C[C@@H](O)CC(=O)O [p-hydroxy atorvastatin] ) reads 0.62

----------
assay-comment: Phase 1 oral iron interaction study, Cohort 2 (before meal): sucroferric oxyhydroxide
Format: in vivo, human
measurement-setup: male, human, plasma, oral, 150 mg; read-out: t1/2, LS geometric mean (converted)
endpoint-label: half-life (h)
Reply with just the number (in h).

Noted for O=C(O)CNC(=O)c1ncc(-c2cccc(Cl)c2)cc1O : its half-life reads 5.17

----------
assay-comment: Phase I calcium acetate interaction study
Type: in vivo, human
measurement-setup: human, plasma, oral, 300 mg, Vadadustat administered 1 hour prior to calcium acetate, fasting; read-out: Elimination half-life (t1/2) (converted)
endpoint-label: half-life (h)
Give the quantity in h, number only.

Lab note: measured half-life of O=C(O)CNC(=O)c1ncc(-c2cccc(Cl)c2)cc1O [Compound 1] was 4.47

----------
assay-comment: Phase I calcium acetate interaction study
Type: in vivo, human
measurement-setup: human, plasma, oral, 300 mg, Concomitant administration with calcium acetate 1334 mg after breakfast; read-out: Volume of distribution (Vc)
endpoint-label: Vd (L)
Numeric answer only, unit L assumed.

The recorded Vd for entry O=C(O)CNC(=O)c1ncc(-c2cccc(Cl)c2)cc1O [Compound 1] equals 29.8

----------
assay-comment: Phase 1 oral iron interaction study, Cohort 2 (before meal): sucroferric oxyhydroxide
Format: in vivo, human
measurement-setup: male, human, plasma, oral; 150 mg with sucroferric oxyhydroxide (1000 mg iron), before meal; read-out: AUC(0-last), LS geometric mean
endpoint-label: AUC(0-t) (ng·h/mL)
The answer is to be given in ng·h/mL; state only the numeric part.

AUC(0-t) for O=C(O)CNC(=O)c1ncc(-c2cccc(Cl)c2)cc1O is 44500
